This collection of values is drawn from patent US20260191981A1.

Target: T1, his-tagged cTfR1 (Acro Biosystems p/n TFR-C524a) (cynomolgus monkey, UniProt H9EXL1 89-760 (rhesus entry))
T1 construct: Bought reagent of the SPR assay
T1 sequence (chain, as listed by the source): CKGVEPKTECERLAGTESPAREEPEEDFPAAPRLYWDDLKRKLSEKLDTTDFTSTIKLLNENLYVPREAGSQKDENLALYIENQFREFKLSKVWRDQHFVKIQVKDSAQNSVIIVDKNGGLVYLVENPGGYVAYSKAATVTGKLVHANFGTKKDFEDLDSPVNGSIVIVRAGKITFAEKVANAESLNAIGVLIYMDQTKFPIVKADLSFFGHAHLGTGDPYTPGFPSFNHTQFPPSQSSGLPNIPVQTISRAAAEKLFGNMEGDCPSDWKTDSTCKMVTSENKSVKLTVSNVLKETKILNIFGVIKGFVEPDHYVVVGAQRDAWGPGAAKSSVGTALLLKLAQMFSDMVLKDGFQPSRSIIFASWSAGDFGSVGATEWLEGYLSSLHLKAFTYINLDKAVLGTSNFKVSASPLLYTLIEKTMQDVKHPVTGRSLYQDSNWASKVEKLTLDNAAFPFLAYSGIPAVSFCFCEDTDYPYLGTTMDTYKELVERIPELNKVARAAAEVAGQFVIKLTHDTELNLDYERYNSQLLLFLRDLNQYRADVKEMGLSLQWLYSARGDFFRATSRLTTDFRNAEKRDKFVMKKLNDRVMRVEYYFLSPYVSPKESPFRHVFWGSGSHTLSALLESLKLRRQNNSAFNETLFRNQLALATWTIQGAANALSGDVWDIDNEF
Experiment: SPR, Biacore X100, His-tagged TfR1 captured by anti-His
test-readout: kon

INSERT INTO measurements (binder, observed_result) VALUES
  ('Fab0064 (Fab, V domains shown) VH: EVQLVESGGGLVQPGGSLRLSCATSGYTFTSYWMHWVRQAPGKGLEWVAEINPTNGRVNYIEKFKSRITLSVDKSKSTVYLQMNSLRAEDTAVYYCARGTRAYHYWGQGTLVTVSS VL: DIQLTQSPSSLSASVGDRVTITCRASDGLYSNLAWYQQKPGKAPKLLIYDAKNLASGVPSRFSGSGSGTDYTLTISSLQPEDFATYYCQHFWGTPLTFGQGTKVEIKR', '1.5e+06 M⁻¹ s⁻¹'),
  ('Fab0069 (Fab, V domains shown) VH: EVQLVESGGGLVQPGGSLRLSCATSGYTFTSYWVHWVRQAPGKGLEWVAEINPTNGRSNYIEKFKSRITLSVDKSKSTVYLQMNSLRAEDTAVYYCARGTRAYHYWGQGTLVTVSS VL: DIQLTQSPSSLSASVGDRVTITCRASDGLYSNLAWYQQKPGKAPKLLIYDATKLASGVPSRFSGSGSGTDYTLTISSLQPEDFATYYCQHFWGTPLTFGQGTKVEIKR', '1.38e+06 M⁻¹ s⁻¹'),
  ('Fab0066 (Fab, V domains shown) VH: EVQLVESGGGLVQPGGSLRLSCATSGYTFTSYWVHWVRQAPGKGLEWVAEINPTNGRVNYIEKFKSRITLSVDKSKSTVYLQMNSLRAEDTAVYYCARGTRAYHYWGQGTLVTVSS VL: DIQLTQSPSSLSASVGDRVTITCRASDGLYSNLAWYQQKPGKAPKLLIYDAFNLASGVPSRFSGSGSGTDYTLTISSLQPEDFATYYCQHFWGTPLTFGQGTKVEIKR', '1.17e+06 M⁻¹ s⁻¹'),
  ('Fab0070 (Fab, V domains shown) VH: EVQLVESGGGLVQPGGSLRLSCATSGFTFTSYWMHWVRQAPGKGLEWVAEINPTNGRTNYIEKFKSRITLSVDKSKSTVYLQMNSLRAEDTAVYYCARGTRAYHYWGQGTLVTVSS VL: DIQLTQSPSSLSASVGDRVTITCRASDKLYSNLAWYQQKPGKAPKLLIYDATLLASGVPSRFSGSGSGTDYTLTISSLQPEDFATYYCQHFWGTPLTFGQGTKVEIKR', '1.29e+06 M⁻¹ s⁻¹'),
  ('Fab0002 (Fab, V domains shown) VH: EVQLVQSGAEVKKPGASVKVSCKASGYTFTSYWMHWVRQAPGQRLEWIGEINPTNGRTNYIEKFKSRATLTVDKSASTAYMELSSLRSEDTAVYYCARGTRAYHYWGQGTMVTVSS VL: DIQMTQSPSSLSASVGDRVTITCRASDNLYSNLAWYQQKPGKSPKLLVYDATNLADGVPSRFSGSGSGTDYTLTISSLQPEDFATYYCQHFWGTPLTFGQGTKVEIKR', '614000 M⁻¹ s⁻¹'),
  ('Fab0063 (Fab, V domains shown) VH: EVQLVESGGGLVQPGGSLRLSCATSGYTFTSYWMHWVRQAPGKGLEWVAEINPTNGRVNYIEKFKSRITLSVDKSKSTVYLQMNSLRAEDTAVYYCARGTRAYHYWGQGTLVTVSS VL: DIQLTQSPSSLSASVGDRVTITCRASDGLYSNLAWYQQKPGKAPKLLIYDATRLASGVPSRFSGSGSGTDYTLTISSLQPEDFATYYCQHFWGTPLTFGQGTKVEIKR', '1.64e+06 M⁻¹ s⁻¹'),
  ('Fab0071 (Fab, V domains shown) VH: EVQLVESGGGLVQPGGSLRLSCATSGYTFNSYWMHWVRQAPGKGLEWVAEINPTNGRTNYIEKFKSRITLSVDKSKSTVYLQMNSLRAEDTAVYYCARGTRAYHYWGQGTLVTVSS VL: DIQLTQSPSSLSASVGDRVTITCRASDGLYSNLAWYQQKPGKAPKLLIYDARNLASGVPSRFSGSGSGTDYTLTISSLQPEDFATYYCQHFWGTPLTFGQGTKVEIKR', '1.38e+06 M⁻¹ s⁻¹'),
  ('Fab0072 (Fab, V domains shown) VH: EVQLVESGGGLVQPGGSLRLSCATSGYTFNSYWMHWVRQAPGKGLEWVAEINPTNGRFNYIEKFKSRITLSVDKSKSTVYLQMNSLRAEDTAVYYCARGTRAYHYWGQGTLVTVSS VL: DIQLTQSPSSLSASVGDRVTITCRASDNLYRNLAWYQQKPGKAPKLLIYDARNLASGVPSRFSGSGSGTDYTLTISSLQPEDFATYYCQHFWGTPLTFGQGTKVEIKR', '2.78e+06 M⁻¹ s⁻¹'),
  ('Fab0065 (Fab, V domains shown) VH: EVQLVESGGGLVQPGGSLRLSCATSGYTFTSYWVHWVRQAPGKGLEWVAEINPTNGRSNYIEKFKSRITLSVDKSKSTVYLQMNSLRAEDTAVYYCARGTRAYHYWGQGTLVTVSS VL: DIQLTQSPSSLSASVGDRVTITCRASDNLYRNLAWYQQKPGKAPKLLIYDATKLASGVPSRFSGSGSGTDYTLTISSLQPEDFATYYCQHFWGTPLTFGQGTKVEIKR', '1.79e+06 M⁻¹ s⁻¹'),
  ('Fab0067 (Fab, V domains shown) VH: EVQLVESGGGLVQPGGSLRLSCATSGYTFTSYWVHWVRQAPGKGLEWVAEINPTNGRTNYIEKFKSRITLSVDKSKSTVYLQMNSLRAEDTAVYYCARGTRAYHYWGQGTLVTVSS VL: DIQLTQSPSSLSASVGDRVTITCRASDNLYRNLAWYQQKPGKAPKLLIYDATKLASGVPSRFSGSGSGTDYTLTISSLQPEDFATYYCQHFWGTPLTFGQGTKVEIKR', '1.87e+06 M⁻¹ s⁻¹'),
  ('Fab0068 (Fab, V domains shown) VH: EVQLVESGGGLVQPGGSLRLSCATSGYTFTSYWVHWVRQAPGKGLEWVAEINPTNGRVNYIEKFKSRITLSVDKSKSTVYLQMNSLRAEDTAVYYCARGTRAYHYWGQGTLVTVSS VL: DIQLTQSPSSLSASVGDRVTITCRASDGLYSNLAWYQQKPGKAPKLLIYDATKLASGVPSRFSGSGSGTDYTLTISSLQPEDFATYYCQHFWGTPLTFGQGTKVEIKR', '1.57e+06 M⁻¹ s⁻¹');
